target: MEF2D/HDAC4 protein-protein interactions (Homo sapiens (Human), UniProt Q14814); assay: Mammalian two-hybrid assay, inhibition of MEF2D and HDAC4 protein interactions (luciferase reporter in HeLa cells); details: HeLa cells co-transfected with GAL4-MEF2D, HDAC4-VP16 and Gal4Luc; overnight treatment; luciferase normalized to Renilla
Sequence (Q14814 whole entry, species assumed, the tested form may be a part): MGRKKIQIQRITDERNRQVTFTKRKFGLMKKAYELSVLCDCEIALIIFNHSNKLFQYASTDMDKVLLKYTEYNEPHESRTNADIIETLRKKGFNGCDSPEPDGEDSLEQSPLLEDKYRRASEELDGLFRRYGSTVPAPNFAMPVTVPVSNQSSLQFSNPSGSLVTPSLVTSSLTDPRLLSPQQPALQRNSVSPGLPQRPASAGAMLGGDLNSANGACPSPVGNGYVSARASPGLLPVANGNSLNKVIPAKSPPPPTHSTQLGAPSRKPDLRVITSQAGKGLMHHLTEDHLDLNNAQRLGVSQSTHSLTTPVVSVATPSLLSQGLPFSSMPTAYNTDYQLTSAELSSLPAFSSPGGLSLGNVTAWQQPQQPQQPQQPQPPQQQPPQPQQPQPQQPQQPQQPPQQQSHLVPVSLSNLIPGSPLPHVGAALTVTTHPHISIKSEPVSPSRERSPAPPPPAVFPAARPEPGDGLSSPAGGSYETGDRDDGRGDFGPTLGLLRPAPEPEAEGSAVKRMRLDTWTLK
pIC50: −log10 of the molar value.
Attribute: pIC50
EXPERIMENTAL ENDPOINT: pIC50

                                    compound  bound_sign  number
 0  O=C(/C=C/c1cccc(CNc2cccc(N3CCCCC3)c2)c1)NO [ST39]           =    6.51
 1  CCOC(=O)N[C@@H](CCCCC(=O)Nc1ccccc1N)C(=O)Nc1cccc(OCC)c1 [ST100]           =    6.68
 2  Nc1ccccc1NC(=O)/C=C/c1ccc(F)c(CNc2ccccc2)c1 [ST11]           =    4.74
 3  Cc1[nH]c2ccccc2c1CCNc1cccc(/C=C/C(=O)NO)c1 [ST71]           =    6.57
 4  Cc1csc(NCc2cccc(/C=C/C(=O)Nc3ccccc3N)c2)n1 [ST66]           =    5.61
 5  Nc1ccccc1NC(=O)CCCC[C@H](NC(=O)CC1CC1)C(=O)Nc1cccc(Br)c1 [ST98]           =    6.49
 6  Nc1ccccc1NC(=O)/C=C/c1cccc(CNc2nccc(-c3cccnc3)n2)c1 [ST47]           =    5.83
 7  CCN1CCN(C(CCCCC(=O)Nc2ccccc2N)C(=O)Nc2cccc(Br)c2)C1=O (stereo not shown) [ST105]           =    5.83
 8  CC(C)CC(=O)N[C@@H](CCCCC(=O)Nc1ccccc1N)C(=O)Nc1cccc(Br)c1 [ST101]           =    6.46
 9  COc1ccc(-c2csc(NCc3cccc(/C=C/C(=O)Nc4ccccc4N)c3)n2)cc1 [ST51]           <    4.70
10  O=C(/C=C/c1cccc(CNc2cccc(N3CCOCC3)c2)c1)NO [ST32]           =    6.60
11  O=C(/C=C/c1cccc(C(=O)Nc2nc(-c3ccncc3)cs2)c1)NO [ST69]           =    6.01
12  Cc1csc(NCc2cccc(/C=C/C(=O)NO)c2)n1 [ST78]           <    4.70
13  CN(C)Cc1ccc(NCc2cccc(/C=C/C(=O)NO)c2)cc1 [ST42]           =    7.15
14  CCOC(=O)N[C@H](CCCCC(=O)Nc1ccccc1N)C(=O)Nc1cccc(Br)c1 [ST95]           =    5.98
15  O=C(/C=C/c1cccc(CNc2cccc(N3CCNCC3)c2)c1)NO [ST40]           =    6.59
16  CCOC(=O)NC(CCCCC(=O)Nc1ccccc1N)C(=O)Nc1ccc2ncccc2c1 (stereo not shown) [ST118]           =    6.31
17  O=C(/C=C/c1cccc(CNc2cccc(OCC(F)(F)F)c2)c1)NO [ST46]           =    6.17
18  O=C(/C=C/c1cccc(CNc2cccc(C3COC3)c2)c1)NO [ST43]           =    6.57
19  CCCC(=O)N[C@@H](CCCCC(=O)NO)C(=O)Nc1cccc(Br)c1 [ST108]           =    6.40
20  Cc1nnc(NCc2cccc(/C=C/C(=O)Nc3ccccc3N)c2)o1 [ST65]           =    5.27
21  Cc1cnc(NCc2cccc(/C=C/C(=O)Nc3ccccc3N)c2)s1 [ST59]           =    5.50
22  Nc1ccccc1NC(=O)CCCCC(N)C(=O)Nc1cccc(Br)c1 (stereo not shown) [ST87]           =    5.51
23  COC(=O)NC(CCCCC(=O)Nc1ccccc1N)C(=O)Nc1cccc2cccnc12 (stereo not shown) [ST119]           =    6.41
24  CCOC(=O)NC(CCCCC(=O)Nc1ccccc1N)C(=O)Nc1cccc(Br)c1 (stereo not shown) [ST80]           =    6.25
